These measurements were taken from patent US20040053872.

study_target: HIV-1 RT reference (HIV-1 subtype B (clone BH10), UniProt P03366;P03366 P03366:600-1159,P03366:600-1039)
assay_remarks: competition; BIC50, RT binding to primer; 33 C
condition_description: hairpin
pIC50: −log10 of the molar value.

- binder: "CAGACUUUUAAUCUG (ssRNA, PS all linkages) [compound 198 (15-mer anticodon stem-loop)]"
  pIC50: 7.00
